assay.system: Recombinant Abl T315I protein (Homo sapiens, UniProt P00519, T315I)
assay.name: Abl T315I mutant kinase inhibitory activity, ELISA-based in vitro kinase assay
assay.setup: purified Abl T315I, 0.3 mM ATP
Overview of recorded pIC50 for various compounds
Keep in mind that pIC50 stands for -log10 of concentration in molar terms.

Request: Tell me reported pIC50 for "CCN(CC)CCSCC(=O)c1ccc2[nH]c3nc(Cl)ccc3c2c1" , tested with Recombinant Abl T315I protein (Homo sapiens, UniProt P00519, T315I).
Response: 4.80

Request: Another compound: "COc1ccc(-c2ccnc3[nH]c4ccccc4c23)cc1"
Response: 5.80

Request: Another compound: "O=C(CSCCOc1ccccc1)c1ccc2[nH]c3ncc(Cl)cc3c2c1"
Response: 4.48
